system: VanB vancomycin-resistant E. faecium (10); assay: MIC broth microdilution, VanB E. faecium; conditions: E. faecium, VanB (10)
Would you kindly list MIC 90% for each of these molecules?
Dear colleague, please send the value followed by its unit.

Here are 2 molecules together with their reported answers.
Molecule	MIC 90%
CNC(CC(C)C)C(=O)NC1C(=O)NC(CC(N)=O)C(=O)NC2C(=O)NC3C(=O)NC(C(=O)NC(C(=O)O)c4cc(O)c(CNCCOCCOCC[N+](C)(C)C)c(O)c4-c4cc3ccc4O)C(O)c3ccc(c(Cl)c3)Oc3cc2cc(c3OC2OC(CO)C(O)C(O)C2OC2CC(C)(NCc3ccc(-c4ccc(Cl)cc4)cc3)C(O)C(C)O2)Oc2ccc(cc2Cl)C1O (stereo not drawn) [Compound 13]	0.12 µg/mL
CCCCCCCCCCNCCNC1(C)CC(OC2C(Oc3c4cc5cc3Oc3ccc(cc3Cl)C(O)C3NC(=O)C(NC(=O)C5NC(=O)C(CC(N)=O)NC(=O)C(NC(=O)C(CC(C)C)NC)C(O)c5ccc(c(Cl)c5)O4)c4ccc(O)c(c4)-c4c(cc(O)c(CNCCOCCOCCN)c4O)C(C(=O)O)NC3=O)OC(CO)C(O)C2O)OC(C)C1O (stereo not drawn) [Compound 3]	0.015 µg/mL

query: Look up MIC 90% for this molecule: CNC(CC(C)C)C(=O)NC1C(=O)NC(CC(N)=O)C(=O)NC2C(=O)NC3C(=O)NC(C(=O)NC(C(=O)O)c4cc(O)c(CNCCOCCOCCOCCN(C)C)c(O)c4-c4cc3ccc4O)C(O)c3ccc(c(Cl)c3)Oc3cc2cc(c3OC2OC(CO)C(O)C(O)C2OC2CC(C)(NCc3ccc(-c4ccc(Cl)cc4)cc3)C(O)C(C)O2)Oc2ccc(cc2Cl)C1O (stereo not drawn) [Compound 14]
result: 0.12 µg/mL
